- Test system: Escherichia coli BW25113
- procedure.text: plate-normalized OD600 growth (mean of duplicates) (OD600 (normalized)); higher = more growth (less inhibition)
- run.parameters: temperature: 15°C; 48 h; 10 µM
In all, about 1,600 compounds were measured (“plate-normalized OD600 growth (mean of duplicates)”: median about 0.31, lowest 2% from about 0.23 on). Only a selection was taken, and the lowest values are over-represented in it overall.
experimental.readout: plate-normalized OD600 growth
When you answer, write just the number.

Checklist item: plate-normalized OD600 growth tested on Escherichia coli BW25113, entry `OCCN1CCN(Cc2ccc(F)c(F)c2)CC1` , value?
0.247

Checklist item: plate-normalized OD600 growth tested on Escherichia coli BW25113, entry `COc1cc(Cc2ccc(N)c(OC)c2)ccc1N` , value?
0.255

Checklist item: plate-normalized OD600 growth tested on Escherichia coli BW25113, entry `CCOc1cc(/C=C/[N+](=O)[O-])ccc1O` , value?
0.209

Checklist item: plate-normalized OD600 growth tested on Escherichia coli BW25113, entry `Cc1[nH]c2ccccc2c1CCCNC1CCCCC1` , value?
0.264

Checklist item: plate-normalized OD600 growth tested on Escherichia coli BW25113, entry `Oc1cccc(CN2CCN(c3ccc(F)cc3)CC2)c1` , value?
0.222

Checklist item: plate-normalized OD600 growth tested on Escherichia coli BW25113, entry Cc1ccc2c(c1)C1CN(C)CCC1N2 (configuration not stated) , value?
0.227

Checklist item: plate-normalized OD600 growth tested on Escherichia coli BW25113, entry `Cc1cccc(CN2CCN(c3ccccc3)CC2)c1` , value?
0.223

* * *

- System: Escherichia coli BW25113
- procedure.text: plate-normalized OD600 growth (mean of duplicates) (OD600 (normalized)); higher = more growth (less inhibition)
- run.parameters: temperature: 37°C; 24 h; 10 µM
Over roughly 1,600 compounds, “plate-normalized OD600 growth (mean of duplicates)” has its median near 0.31; the lowest 2% begin near 0.23. The sample as a whole holds a higher share of the lowest values than the screen did.
Record form. Attribute: plate-normalized OD600 growth. Fill in for each entry.
When you answer, write just the number.

Checklist item: plate-normalized OD600 growth tested on Escherichia coli BW25113, entry `Nc1ccc(Oc2ccc(N)cc2)cc1` , value?
0.608

Checklist item: plate-normalized OD600 growth tested on Escherichia coli BW25113, entry `Cc1ccccc1-n1c(/C=C/c2ccccc2[N+](=O)[O-])nc2ccccc2c1=O` , value?
0.651

Checklist item: plate-normalized OD600 growth tested on Escherichia coli BW25113, entry `CCOc1cc(/C=C/[N+](=O)[O-])ccc1O` , value?
0.585

Checklist item: plate-normalized OD600 growth tested on Escherichia coli BW25113, entry `CN1C(=O)C(C2(C#N)CCCCC2)C(=O)N(C)C1=O` , value?
0.635

Checklist item: plate-normalized OD600 growth tested on Escherichia coli BW25113, entry `Cc1cccc(C)c1-n1nnnc1C1(Nc2cccc(O)c2)CCCCC1` , value?
0.643

* * *

- Test system: Escherichia coli BW25113
- procedure.text: plate-normalized OD600 growth (mean of duplicates) (OD600 (normalized)); higher = more growth (less inhibition)
- run.parameters: temperature: 15°C; 48 h; 10 µM
Over roughly 1,600 compounds, “plate-normalized OD600 growth (mean of duplicates)” has its median near 0.31; the lowest 2% begin near 0.23. Many of the other results were omitted from the sample, so the lowest values are more common in it than they were.
experimental.readout: plate-normalized OD600 growth
When you answer, write just the number.

plate-normalized OD600 growth lookup needed for `COc1ccc(Br)cc1CN1CCN(C)CC1` , thanks.
0.26

plate-normalized OD600 growth lookup needed for `Cc1ccc(-c2nc3ccccc3c(=O)n2-c2cccc(O)c2)cc1` , thanks.
0.247

plate-normalized OD600 growth lookup needed for `O=c1cccc2n1C[C@H]1C[C@H]2CN(Cc2c(Cl)cccc2Cl)C1` , thanks.
0.284

plate-normalized OD600 growth lookup needed for `COc1cc(CN2C[C@@H]3C[C@@H](C2)c2cccc(=O)n2C3)cc(I)c1O` , thanks.
0.263

plate-normalized OD600 growth lookup needed for `COc1ccccc1N1CCN(Cc2ccc(N(C)C)cc2)CC1` , thanks.
0.234

plate-normalized OD600 growth lookup needed for `O=c1cccc2n1C[C@H]1C[C@H]2CN(Cc2cccc(Cl)c2Cl)C1` , thanks.
0.28

plate-normalized OD600 growth lookup needed for `Cc1cccc(C)c1-n1nnnc1C1(Nc2cccc(O)c2)CCCCC1` , thanks.
0.252

plate-normalized OD600 growth lookup needed for `Cc1ccccc1CN1CCN(c2ccc([N+](=O)[O-])cc2)CC1` , thanks.
0.23

plate-normalized OD600 growth lookup needed for `Fc1ccc(CN2CCN(c3cccc(Cl)c3)CC2)c(F)c1` , thanks.
0.253

plate-normalized OD600 growth lookup needed for `CCN1CCN(Cc2ccc(OC)c(C)c2)CC1` , thanks.
0.261

plate-normalized OD600 growth lookup needed for `CN1C(=O)C(C2(C#N)CCCCC2)C(=O)N(C)C1=O` , thanks.
0.264
